meta.source: the supplement of paper PMC12042874

Assay: amyloid nucleation score (Sup35N fusion, yeast selection) (log enrichment); library NNK2; higher = more nucleation; inactive = no reads after selection;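 further: zero at mode of non-aggregating sequences after 7 days selection at 30°C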
Grouping by measured amyloid nucleation score is done with the following cut points: range A (below -0.4), range B (-0.4 to below 0.6), range C (0.6 or more)

// known answers, use as guide
| substance | assigned label |
| --- | --- |
| WYMLLRESPGSCPVGDEQGR | range C |
| LTSGVHCHKRTVHD | range B |
| RTNFVNGLAVVVRNM | range B |
| ICTFYDTGLWVIYSVTRKAR | range B |
| VCELGRRWDLRSVLSC | range C |

Consider the additional substance presented here.
Exercise: Which class holds FRTASLHVCLFLSG ?
Key: range B
